// reported viability at 72 h, 50 µM for each item listed
- ASSAY_PROCEDURE: MTT cell proliferation assay, melanoblasts
- Assay type: cell-based, human
- RECORDED_CONDITIONS: human, 50 μM, MTT, 72 h, read-out: melanoblast proliferation rate after 72 hours
Ends that are not written are not given here.
MEASURED_METRIC: viability at 72 h, 50 µM (%)

- YRSRKYSSWY [decapeptide-12, YRSRKYSSWY]: 98
- Ac-YRSRKYSSWY-NH2 [P4C, Acetyl-YRSRKYSSWY-amide]: 98

---

- ASSAY_PROCEDURE: in vitro
- Assay type: cell-based
- RECORDED_CONDITIONS: human, human epidermal progenitors
Peptide text beside a SMILES is read from it.
MEASURED_METRIC: viability at 72 h, 30 µM (%)

* CCCCCCCCCCCCCCCC(=O)N[C@@H](Cc1ccc(O)cc1)C(=O)N[C@@H](CCCNC(=N)N)C(=O)N[C@@H](CO)C(=O)N[C@@H](CCCNC(=N)N)C(=O)N[C@@H](CCCCN)C(=O)N[C@@H](Cc1ccc(O)cc1)C(=O)N[C@@H](CO)C(=O)N[C@@H](CO)C(=O)N[C@@H](Cc1c[nH]c2ccccc12)C(=O)N[C@@H](Cc1ccc(O)cc1)C(N)=O [P4A, Palmitoyl-YRSRKYSSWY-amide] (HELM PEPTIDE1{[CCCCCCCCCCCCCCCC(=O)[*:2]].Y.R.S.R.K.Y.S.S.W.Y.[am]}$$$$V2.0) | 98
* CCCCCCCCCCCCCCCC(=O)N[C@@H](Cc1ccc(O)cc1)C(=O)N[C@@H](CCCNC(=N)N)C(=O)N[C@@H](CO)C(=O)N[C@@H](CCCNC(=N)N)C(=O)N[C@@H](CCCCN)C(=O)N[C@H](Cc1ccc(O)cc1)C(=O)N[C@@H](CO)C(=O)N[C@@H](CO)C(=O)N[C@@H](Cc1c[nH]c2ccccc12)C(=O)N[C@@H](Cc1ccc(O)cc1)C(N)=O [P4B, Palmitoyl-YRSRK[*Y]SSWY-amide] (HELM PEPTIDE1{[CCCCCCCCCCCCCCCC(=O)[*:2]].Y.R.S.R.K.[dY].S.S.W.Y.[am]}$$$$V2.0) | 98

---

- ASSAY_PROCEDURE: MTT cell proliferation assay, melanoblasts
- Assay type: cell-based, human
- RECORDED_CONDITIONS: human, 50 μM, MTT, 72 h, read-out: melanoblast proliferation rate after 72 hours
Peptide text beside a SMILES is read from it.
// reported viability at 72 h, 50 µM for each item listed
MEASURED_METRIC: viability at 72 h, 50 µM (%)

• CCCCCCCCCCCCCCCC(=O)N[C@@H](Cc1ccc(O)cc1)C(=O)N[C@@H](CCCNC(=N)N)C(=O)N[C@@H](CO)C(=O)N[C@@H](CCCNC(=N)N)C(=O)N[C@@H](CCCCN)C(=O)N[C@@H](Cc1ccc(O)cc1)C(=O)N[C@@H](CO)C(=O)N[C@@H](CO)C(=O)N[C@@H](Cc1c[nH]c2ccccc12)C(=O)N[C@@H](Cc1ccc(O)cc1)C(N)=O [P4A, Palmitoyl-YRSRKYSSWY-amide] (HELM PEPTIDE1{[CCCCCCCCCCCCCCCC(=O)[*:2]].Y.R.S.R.K.Y.S.S.W.Y.[am]}$$$$V2.0) = 98
• CCCCCCCCCCCCCCCC(=O)N[C@@H](Cc1ccc(O)cc1)C(=O)N[C@@H](CCCNC(=N)N)C(=O)N[C@@H](CO)C(=O)N[C@@H](CCCNC(=N)N)C(=O)N[C@@H](CCCCN)C(=O)N[C@H](Cc1ccc(O)cc1)C(=O)N[C@@H](CO)C(=O)N[C@@H](CO)C(=O)N[C@@H](Cc1c[nH]c2ccccc12)C(=O)N[C@@H](Cc1ccc(O)cc1)C(N)=O [P4B, Palmitoyl-YRSRK[*Y]SSWY-amide] (HELM PEPTIDE1{[CCCCCCCCCCCCCCCC(=O)[*:2]].Y.R.S.R.K.[dY].S.S.W.Y.[am]}$$$$V2.0) = 98

---

- ASSAY_PROCEDURE: in vitro
- Format: cell-based
- RECORDED_CONDITIONS: human, human epidermal progenitors
Ends that are not written are not given here.
MEASURED_METRIC: viability at 72 h, 3 µM (%)

• Ac-YRSRKYSSWY-NH2 [P4C, Acetyl-YRSRKYSSWY-amide] = 99
• YRSRKYSSWY [decapeptide-12, YRSRKYSSWY] = 100

---

- ASSAY_PROCEDURE: Trypan blue cell viability, 7 days, fibroblasts
- Assay type: cell-based
- RECORDED_CONDITIONS: human, 3 μM, relative to control, read-out: fibroblast viability after 7 days
Peptide text beside a SMILES is read from it.
MEASURED_METRIC: viability at 168 h, 3 µM

• CCCCCCCCCCCCCCCC(=O)N[C@@H](Cc1ccc(O)cc1)C(=O)N[C@@H](CCCNC(=N)N)C(=O)N[C@@H](CO)C(=O)N[C@@H](CCCNC(=N)N)C(=O)N[C@@H](CCCCN)C(=O)N[C@H](Cc1ccc(O)cc1)C(=O)N[C@@H](CO)C(=O)N[C@@H](CO)C(=O)N[C@@H](Cc1c[nH]c2ccccc12)C(=O)N[C@@H](Cc1ccc(O)cc1)C(N)=O [P4B, Palmitoyl-YRSRK[*Y]SSWY-amide] (HELM PEPTIDE1{[CCCCCCCCCCCCCCCC(=O)[*:2]].Y.R.S.R.K.[dY].S.S.W.Y.[am]}$$$$V2.0) = 100%
• CCCCCCCCCCCCCCCC(=O)N[C@@H](Cc1ccc(O)cc1)C(=O)N[C@@H](CCCNC(=N)N)C(=O)N[C@@H](CO)C(=O)N[C@@H](CCCNC(=N)N)C(=O)N[C@@H](CCCCN)C(=O)N[C@@H](Cc1ccc(O)cc1)C(=O)N[C@@H](CO)C(=O)N[C@@H](CO)C(=O)N[C@@H](Cc1c[nH]c2ccccc12)C(=O)N[C@@H](Cc1ccc(O)cc1)C(N)=O [P4A, Palmitoyl-YRSRKYSSWY-amide] (HELM PEPTIDE1{[CCCCCCCCCCCCCCCC(=O)[*:2]].Y.R.S.R.K.Y.S.S.W.Y.[am]}$$$$V2.0) = 100%

---

- ASSAY_PROCEDURE: Trypan blue cell viability, 7 days, fibroblasts
- Type: cell-based
- RECORDED_CONDITIONS: human, 100 μM, relative to control, read-out: fibroblast viability after 7 days
Peptide text beside a SMILES is read from it.
MEASURED_METRIC: viability at 168 h, 100 µM

• CCCCCCCCCCCCCCCC(=O)N[C@@H](Cc1ccc(O)cc1)C(=O)N[C@@H](CCCNC(=N)N)C(=O)N[C@@H](CO)C(=O)N[C@@H](CCCNC(=N)N)C(=O)N[C@@H](CCCCN)C(=O)N[C@H](Cc1ccc(O)cc1)C(=O)N[C@@H](CO)C(=O)N[C@@H](CO)C(=O)N[C@@H](Cc1c[nH]c2ccccc12)C(=O)N[C@@H](Cc1ccc(O)cc1)C(N)=O [P4B, Palmitoyl-YRSRK[*Y]SSWY-amide] (HELM PEPTIDE1{[CCCCCCCCCCCCCCCC(=O)[*:2]].Y.R.S.R.K.[dY].S.S.W.Y.[am]}$$$$V2.0) = 97.3%
• CCCCCCCCCCCCCCCC(=O)N[C@@H](Cc1ccc(O)cc1)C(=O)N[C@@H](CCCNC(=N)N)C(=O)N[C@@H](CO)C(=O)N[C@@H](CCCNC(=N)N)C(=O)N[C@@H](CCCCN)C(=O)N[C@@H](Cc1ccc(O)cc1)C(=O)N[C@@H](CO)C(=O)N[C@@H](CO)C(=O)N[C@@H](Cc1c[nH]c2ccccc12)C(=O)N[C@@H](Cc1ccc(O)cc1)C(N)=O [P4A, Palmitoyl-YRSRKYSSWY-amide] (HELM PEPTIDE1{[CCCCCCCCCCCCCCCC(=O)[*:2]].Y.R.S.R.K.Y.S.S.W.Y.[am]}$$$$V2.0) = 97.4%

---

// reported viability at 168 h, 10 µM for each item listed
- ASSAY_PROCEDURE: Trypan blue cell viability, 7 days, melanoblasts
- Type: cell-based
- RECORDED_CONDITIONS: human, 10 μM, relative to control, read-out: melanoblast viability after 7 days
Ends that are not written are not given here.
MEASURED_METRIC: viability at 168 h, 10 µM (%)

* Ac-YRSRKYSSWY-NH2 [P4C, Acetyl-YRSRKYSSWY-amide] | 99
* YRSRKYSSWY [decapeptide-12, YRSRKYSSWY] | 99

---

- ASSAY_PROCEDURE: Trypan blue cell viability, 7 days, melanoblasts
- Type: cell-based
- RECORDED_CONDITIONS: human, 30 μM, relative to control, read-out: melanoblast viability after 7 days
Ends that are not written are not given here.
MEASURED_METRIC: viability at 168 h, 30 µM (%)

• Ac-YRSRKYSSWY-NH2 [P4C, Acetyl-YRSRKYSSWY-amide] = 98.4
• YRSRKYSSWY [decapeptide-12, YRSRKYSSWY] = 98.3
